- measured_on: peptide/HLA-A*0201 complex on T2A2 cells (Homo sapiens, UniProt P04439, D140Y/D185E/D98H/E176V/E277Q/G131W/G231S/I119V/I121R/I166T/I218V/L300P/L318F/N151K/N90K/P208A/P217A/Q86G/Q94H/R138H/R169H/T345S)
- Construct: endogenous in cells; host or cells: T2A2 cells
- test_details: Peptide/HLA-A*0201 complex stability assay
- Type: binding
- condition_set: time for loss of 50% of peptide/HLA-A*0201 complexes stabilized at 0 h, 50 μg/mL peptide, 18 h, brefeldin A 10 μg/mL 1 h, then 0, 2, 4, 6 h at 37°C, flow cytometry
Each item that follows carries a reported DC50.

Guide cases for DC50, answers given:
{"sequence_input": "LMMPQTVTV [Rv2994-p223, predicted HLA-A2-restricted 9-mer peptide … from MTB efflux pump antigen Rv2994]", "recorded_value": "<2 h"}
{"sequence_input": "RLGNVVVEV [Rv2477c-p316, predicted HLA-A2-restricted 9-mer peptide … from MTB efflux pump antigen Rv2477c]", "recorded_value": ">2 h"}
{"sequence_input": "ILIGETIKI [COX-2-p321, reference compound]", "recorded_value": ">4 h"}

input: GET /values?readout=DC50&item= SLVSQPPTL [Rv1218c-p280, predicted HLA-A2-restricted 9-mer peptide … from MTB efflux pump antigen Rv1218c]
output: <2 h

* * *

- measured_on: HLA-A*0201 on T2A2 cells (Homo sapiens, UniProt P04439, D140Y/D185E/D98H/E176V/E277Q/G131W/G231S/I119V/I121R/I166T/I218V/L300P/L318F/N151K/N90K/P208A/P217A/Q86G/Q94H/R138H/R169H/T345S)
- Construct: T2A2 cells (1 × 10^6 cells/mL) resuspended in serum-free IMDM medium were seeded in 24-well plates; endogenous in cells; host or cells: T2A2 cells
- test_details: T2A2 cell binding affinity assay
- condition_set: T2A2 cells 1 × 10^6 cells/mL, 50 μg/mL peptide + 3 μg/mL β2-M, 37°C 18 h, HLA-A2 antibody BB7.2, flow cytometry; background MFI 131
endpoint_label: MFI
Hey, just send me the number, nothing else.

Guide cases for MFI, answers given:
{"sequence_input": "SLVSQPPTL [Rv1218c-p280, predicted HLA-A2-restricted 9-mer peptide … from MTB efflux pump antigen Rv1218c]", "MFI": 353}
{"sequence_input": "LLLSKPDLL [Rv2477c-p173, predicted HLA-A2-restricted 9-mer peptide … from MTB efflux pump antigen Rv2477c]", "MFI": 272}
{"sequence_input": "ILIGETIKI [COX-2-p321, reference compound]", "MFI": 408}
{"sequence_input": "TLFKTIVGL [Rv2477c-p362, predicted HLA-A2-restricted 9-mer peptide … from MTB efflux pump antigen Rv2477c]", "MFI": 367}

input: GET /values?readout=MFI&item= GLDPLMENV [Rv1218c-p165, predicted HLA-A2-restricted 9-mer peptide … from MTB efflux pump antigen Rv1218c]
output: 479

input: GET /values?readout=MFI&item= LLDEPSSGL [Rv1218c-p158, predicted HLA-A2-restricted 9-mer peptide … from MTB efflux pump antigen Rv1218c]
output: 439

input: GET /values?readout=MFI&item= LLDEPTSAL [Rv0933-p186, predicted HLA-A2-restricted 9-mer peptide … from MTB efflux pump antigen Rv0933]
output: 465

input: GET /values?readout=MFI&item= VLATGVTLV [Rv2209-p158, predicted HLA-A2-restricted 9-mer peptide … from MTB efflux pump antigen Rv2209]
output: 462

input: GET /values?readout=MFI&item= YLLGGTVVV [Rv1877-p71, predicted HLA-A2-restricted 9-mer peptide … from MTB efflux pump antigen Rv1877]
output: 419

input: GET /values?readout=MFI&item= RLGNVVVEV [Rv2477c-p316, predicted HLA-A2-restricted 9-mer peptide … from MTB efflux pump antigen Rv2477c]
output: 348

input: GET /values?readout=MFI&item= ALCEKVTII [Rv1218c-p200, predicted HLA-A2-restricted 9-mer peptide … from MTB efflux pump antigen Rv1218c]
output: 366

input: GET /values?readout=MFI&item= SLADRLTVI [Rv0933-p208, predicted HLA-A2-restricted 9-mer peptide … from MTB efflux pump antigen Rv0933]
output: 479

input: GET /values?readout=MFI&item= ALDGLDLTV [Rv1218c-p24]
output: 569

input: GET /values?readout=MFI&item= RLTEELAWV [Rv2477c-p265, predicted HLA-A2-restricted 9-mer peptide … from MTB efflux pump antigen Rv2477c]
output: 315
